Where do the numbers come from? From PubChem BioAssay (Tox21).

Assay: qHTS assay to identify small molecule antagonists of the androgen receptor (AR) signaling pathway using the MDA cell line in the presence of 0.5 nM R1881 - cell viability counter screen (AID 1259242); further: on the % scale 0 is the no-effect control and ±100 the full control effect; nearly all actives have a fitted effect of over 45% in size
Details: MDA-kb2 viability, CellTiter-Fluor protease fluorescence, 16 h; series mostly up to 92.4 µM
Inconclusive results are not listed. Calls of active or inactive are those of the source. The call rests on the fitted dose curve; in most records, active means well fitted cell-killing curve with a large enough effect in the repeat runs; inconclusive means weak or mixed curves, or effect the other way; inactive means flat fitted curve, though single readings scatter.
Please reply with one of these outcomes: yes (1) = active, no (0) = inactive

# count of solved cases: 4
[
  {
    "Compound": "O=c1[nH]c(=O)n([C@H]2C[C@H](O)[C@@H](CO)O2)cc1F",
    "Assigned category": "no (0)"
  },
  {
    "Compound": "O=C1CCCCCCCCCCCCCCCO1",
    "Assigned category": "no (0)"
  },
  {
    "Compound": "CCC(C)[O-].CCC(C)[O-].CCOC(=O)/C=C(/C)[O-].[Al+3]",
    "Assigned category": "no (0)"
  },
  {
    "Compound": "COC(C)=O",
    "Assigned category": "no (0)"
  }
]

Req: Each compound tested received a call. Report the one for `O=C1C(c2[nH]c3ccc(S(=O)(=O)O)cc3c2O)=Nc2ccc(S(=O)(=O)O)cc21` .
Resp: no (0)

Req: Also `CCn1c2ccccc2c2cc([N+](=O)[O-])ccc21` ?
Resp: no (0)

###

Experiment: qHTS assay to identify small molecule antagonists of the thyroid receptor (TR) signaling pathway (AID 743065); further: nearly all actives have a fitted effect of over 55% in size
Conditions: GH3.TRE-Luc, T3-stimulated luciferase inhibition, 23.5 h; series mostly up to 70.3 µM
Results filed as inconclusive are left out. Active and inactive are the calls of the source. The call rests on the fitted dose curve; in most records, active means well fitted inhibition curve with a large enough effect in the repeat runs; inconclusive means weak or mixed curves; inactive means no such curve, though single readings can be large or run the other way.
Please reply with one of these outcomes: yes for active, no for inactive

[
  {
    "Molecule": "CCCCCCCC",
    "Assigned category": "no"
  }
]

Req: Each molecule tested received a call. Report the one for Cc1cc(C(C#N)c2ccc(Cl)cc2)c(Cl)cc1NC(=O)c1cc(I)cc(I)c1O (stereo not drawn) .
Resp: yes

Req: Also `CN(C)Cc1ccccc1O` ?
Resp: no

Req: Also `CC1=Nc2ccccc2C1(C)C` ?
Resp: no

Req: Also `CCCCCCCCCCCCOCCOCCOCCOCCOCCOCCOCCOCCOCCO` ?
Resp: yes

Req: Also `S=c1nccc[nH]1` ?
Resp: no

Req: Also `Cc1cccc(C(=O)O)c1O` ?
Resp: no

Req: Also CCCCN(CCCC)CC(O)c1cc(Cl)cc2c1-c1ccc(Cl)cc1/C2=C/c1ccc(Cl)cc1 (stereo not drawn) ?
Resp: yes

Req: Also CC(C)(c1cc(Br)c(OCC(Br)CBr)c(Br)c1)c1cc(Br)c(OCC(Br)CBr)c(Br)c1 (stereo not drawn) ?
Resp: no

Req: Also `C[Si](Cl)(c1ccccc1)c1ccccc1` ?
Resp: no

Req: Also `CC/C=C\CCCCCO` ?
Resp: no

Req: Also `CC(C)Cn1cnc2c(N)nc3ccccc3c21` ?
Resp: no

Req: Also `O=[N+]([O-])c1ccc(O)cc1C(F)(F)F` ?
Resp: yes

###

Test: qHTS assay to test for compound auto fluorescence at 460 nm (blue) in HepG2 cells (AID 720687); further: on the % scale 0 is the no-effect control and ±100 the full control effect
Details: autofluorescence 405/460 nm, 1 h; series mostly up to 91.3 µM
The source made the active and inactive calls. Calls follow the shape of the dose curve; as a rule, active = well fitted curve in the direction sought with a large enough effect in the repeat runs; inconclusive = weak or mixed curves; inactive = flat fitted curve, though single readings scatter.
Endpoint label: fluorescence, % of fluorescent control

[
  {
    "Compound": "Cc1cc(C(C#N)c2ccc(Cl)cc2)c(Cl)cc1NC(=O)c1cc(I)cc(I)c1O (stereo unspecified)",
    "fluorescence, % of fluorescent control": "inactive"
  },
  {
    "Compound": "CC[N+](CC)(CC)CCOc1ccc(/C=C/c2ccccc2)cc1",
    "fluorescence, % of fluorescent control": "inactive"
  },
  {
    "Compound": "C#C[C@]1(O)CC[C@H]2[C@@H]3[C@H](C)CC4=C(CCC(=O)C4)[C@H]3CC[C@@]21C",
    "fluorescence, % of fluorescent control": "inactive"
  },
  {
    "Compound": "CN(C)C(=O)COC(=O)Cc1ccc(OC(=O)c2ccc(N=C(N)N)cc2)cc1",
    "fluorescence, % of fluorescent control": "inactive"
  },
  {
    "Compound": "CCCCCC(C)OC(=O)COc1ccc(Cl)c2cccnc12 (stereo unspecified)",
    "fluorescence, % of fluorescent control": "inactive"
  }
]

Attention now turns to another entry.
Req: # query: fluorescence, % of fluorescent control of entry `CCOc1ccc2ccccc2c1C(=O)N[C@@H]1C(=O)N2[C@@H]1SC(C)(C)[C@@H]2C(=O)O`
Resp: 0.172% [at 18.6 µM] (inactive)

###

Target: Cytochrome P450 2D6 (Homo sapiens) (UniProt P10635)
Sequence (P10635 whole entry, looked up): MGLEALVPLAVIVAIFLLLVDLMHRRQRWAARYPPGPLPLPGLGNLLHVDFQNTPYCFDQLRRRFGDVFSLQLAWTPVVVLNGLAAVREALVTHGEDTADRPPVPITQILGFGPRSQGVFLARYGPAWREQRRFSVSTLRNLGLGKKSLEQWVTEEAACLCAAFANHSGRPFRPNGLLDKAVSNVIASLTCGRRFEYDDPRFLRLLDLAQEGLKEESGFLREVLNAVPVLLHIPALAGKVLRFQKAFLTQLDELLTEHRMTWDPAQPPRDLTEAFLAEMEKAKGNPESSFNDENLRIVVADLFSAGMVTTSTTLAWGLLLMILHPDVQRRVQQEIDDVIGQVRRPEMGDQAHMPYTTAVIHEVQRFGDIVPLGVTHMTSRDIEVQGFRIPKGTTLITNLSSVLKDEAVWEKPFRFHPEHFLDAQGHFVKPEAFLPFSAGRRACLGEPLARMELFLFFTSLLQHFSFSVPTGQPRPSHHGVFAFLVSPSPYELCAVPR
Test: Cytochrome P450 Family 2 Subfamily D Member 6 (CYP2D6) small molecule antagonists: luciferase reporter qHTS assay (AID 1671196); further: nearly all actives have a fitted effect of over 50% in size
Settings: P450-Glo CYP2D6 enzyme assay, luciferin luminescence, 1 h; series mostly up to 115 µM
Records with an inconclusive call do not appear. Active and inactive are the calls of the source. Calls follow the shape of the dose curve; as a rule, active = well fitted inhibition curve with a large enough effect in the repeat runs; inconclusive = weak or mixed curves; inactive = no such curve, though single readings can be large or run the other way.
Please reply with one of these outcomes: y = active, n = inactive

[
  {
    "Compound": "O=[N+]([O-])c1ccc(O)cc1C(F)(F)F",
    "Assigned category": "y"
  }
]

Req: Each compound tested received a call. Report the one for CC(=O)Oc1cc2c(s1)CCN(C(C(=O)C1CC1)c1ccccc1F)C2 (stereo not given) .
Resp: y

Req: Also `COC(=O)Nc1nc2ccc(C(=O)c3ccccc3)cc2[nH]1` ?
Resp: n

Req: Also `COc1ccc(NC(=O)CC(C)=O)cc1` ?
Resp: n

Req: Also `COc1c(C)c2c(c(O)c1C/C=C(\C)CCC(=O)OCCN1CCOCC1)C(=O)OC2` ?
Resp: n

Req: Also `C=CC(=O)OCCOC(=O)C=C` ?
Resp: n

###

Assay: qHTS assay for identifying genotoxic compounds that show differential cytotoxicity against isogenic chicken DT40 cell lines with known DNA damage response pathways - Rev3 mutant cell line (AID 743014); further: nearly all actives have a fitted effect of over 55% in size
Conditions: chicken DT40 Rev3-/- viability, CellTiter-Glo, 40 h; series mostly up to 68.4 µM
Records with an inconclusive call do not appear. Active and inactive are the calls of the source. Calls follow the shape of the dose curve; as a rule, active = well fitted cell-killing curve with a large enough effect in the repeat runs; inconclusive = weak or mixed curves, or effect the other way; inactive = no such curve, though single readings can be large or run the other way.
Please reply with one of these outcomes: active, inactive

[
  {
    "Molecule": "CCC(C)[O-].CCC(C)[O-].CCOC(=O)/C=C(/C)[O-].[Al+3]",
    "Assigned category": "inactive"
  },
  {
    "Molecule": "c1ccc(C(O[C@@H]2CCCN(CCc3ccc4c(c3)OCO4)C2)c2ccccc2)cc1",
    "Assigned category": "active"
  },
  {
    "Molecule": "Cc1ccc(C(C)C)cc2c(C)ccc1-2",
    "Assigned category": "inactive"
  },
  {
    "Molecule": "O=C(/C=C/c1ccc(O)c(O)c1)O[C@@H](C(=O)O)[C@@H](OC(=O)/C=C/c1ccc(O)c(O)c1)C(=O)O",
    "Assigned category": "inactive"
  },
  {
    "Molecule": "NC(=O)c1cccc([N+](=O)[O-])c1",
    "Assigned category": "inactive"
  }
]

Req: Each molecule tested received a call. Report the one for `Cc1cc(=O)oc2cc(O)cc(O)c12` .
Resp: inactive

Req: Also `CCOc1ccc2ccccc2c1C(=O)N[C@@H]1C(=O)N2[C@@H]1SC(C)(C)[C@@H]2C(=O)O` ?
Resp: inactive

Req: Also `CCCC(=O)OCCc1ccccc1` ?
Resp: inactive

Req: Also `CCCC1CCC(=O)CC1` ?
Resp: inactive

Req: Also `COCCOc1cc2cc(C(=O)NC3CCN(C(C)C)CC3)n(CC(=O)Nc3ccc(Cl)cn3)c2cn1` ?
Resp: inactive

Req: Also CC(=O)Oc1cc2c(s1)CCN(C(C(=O)C1CC1)c1ccccc1F)C2 (stereo not given) ?
Resp: inactive

Req: Also `COC(C)=O` ?
Resp: inactive

Req: Also `O=C(O)c1ccc2cc(C(=O)O)ccc2c1` ?
Resp: inactive

Req: Also `Nc1ccc(C(=O)O)c(O)c1` ?
Resp: inactive

Req: Also CC(CO)Oc1ccccc1 (stereo not given) ?
Resp: inactive

Req: Also `CCOC(=O)Cn1cccc1-c1nc(-c2ccc(OC)cc2)c(-c2ccc(OC)cc2)s1` ?
Resp: inactive

Req: Also `CCCNCCC` ?
Resp: inactive

Req: Also `O=[N+]([O-])c1cccc(C(F)(F)F)c1` ?
Resp: inactive

Req: Also `COc1ccc(NC(=O)CC(C)=O)cc1` ?
Resp: inactive

Req: Also `CC(C)NC[C@@H](O)COc1ccc(CC(N)=O)cc1` ?
Resp: inactive

Req: Also `CCc1cccc(CC)c1NC(=O)CN(CC(=O)O)CC(=O)O` ?
Resp: inactive

###

Test: qHTS RealTime-Glo MT Cell Viability Assay in HepG2 cells - 24 hour (AID 1224867); further: on the % scale 0 is the no-effect control and ±100 the full control effect; nearly all actives have a fitted effect of over 50% in size
Conditions: RealTime-Glo luminescence; series mostly up to 76.8 µM
Results filed as inconclusive are left out. Activity calls are given as the source filed them. Calls follow the shape of the dose curve; as a rule, active = well fitted cell-killing curve with a large enough effect in the repeat runs; inconclusive = weak or mixed curves; inactive = flat fitted curve, though single readings scatter.
Please reply with one of these outcomes: 1.0 (active), 0.0 (inactive)

Req: Each compound tested received a call. Report the one for `CCCCOC(=O)CO` .
Resp: 0.0

Req: Also `CCCC1CCC(=O)CC1` ?
Resp: 0.0

Req: Also C=CC(C)(CCC=C(C)C)OC=O (stereo not given) ?
Resp: 0.0
